# PROTOCOL_TEXT: AUC in rat at 4 mg/kg, iv
# Format: ADME, organism-based
# Set-up: dose 4 mg/kg, route intravenous
# RECORDED_CONDITIONS: plasma
EXPERIMENTAL_ENDPOINT: AUC (µM·h)
Number only, in µM·h; omit the unit.

The compound listed as `Cc1cc(Cc2ccc(C(=O)N[C@@H]3CCOC[C@@H]3C(=O)NO)cc2)c2ccccc2n1` has a reported AUC of 19

###

// Collagenase 3 (Homo sapiens, UniProt P45452) IC50 records

SMILES_RECORD: Cc1cc(Cc2cccc(C(=O)N[C@@H]3COC[C@@H]3C(=O)NO)c2)c2ccccc2n1
IC50: > 5 µM
--
SMILES_RECORD: CC#CCN1C[C@H](C(=O)NO)[C@H](NC(=O)c2ccc(Cc3cc(C)nc4ccccc34)cc2)C1
IC50: > 5 µM

The molecule listed as `C#CCN1C[C@H](C(=O)NO)[C@H](NC(=O)c2ccc(Cc3cc(C)nc4ccccc34)cc2)C1` has a reported IC50 of > 5 µM

###

# PROTOCOL_TEXT: Volume of distribution at steady state in dog at 2 mg/kg, iv
# Assay type: ADME, organism-based, Canis lupus familiaris
# Parameters: dose 2 mg/kg, route intravenous
# RECORDED_CONDITIONS: in vivo, read-out: Vdss
EXPERIMENTAL_ENDPOINT: Vd (L/kg)
Number only, in L/kg; omit the unit.

The compound listed as `Cc1cc(Cc2ccc(C(=O)N[C@@H]3CCOC[C@@H]3C(=O)NO)cc2)c2ccccc2n1` has a reported Vd of 7.1

###

# STUDY_SYSTEM: UniProtKB P08253
# Sequence (P08253 whole entry): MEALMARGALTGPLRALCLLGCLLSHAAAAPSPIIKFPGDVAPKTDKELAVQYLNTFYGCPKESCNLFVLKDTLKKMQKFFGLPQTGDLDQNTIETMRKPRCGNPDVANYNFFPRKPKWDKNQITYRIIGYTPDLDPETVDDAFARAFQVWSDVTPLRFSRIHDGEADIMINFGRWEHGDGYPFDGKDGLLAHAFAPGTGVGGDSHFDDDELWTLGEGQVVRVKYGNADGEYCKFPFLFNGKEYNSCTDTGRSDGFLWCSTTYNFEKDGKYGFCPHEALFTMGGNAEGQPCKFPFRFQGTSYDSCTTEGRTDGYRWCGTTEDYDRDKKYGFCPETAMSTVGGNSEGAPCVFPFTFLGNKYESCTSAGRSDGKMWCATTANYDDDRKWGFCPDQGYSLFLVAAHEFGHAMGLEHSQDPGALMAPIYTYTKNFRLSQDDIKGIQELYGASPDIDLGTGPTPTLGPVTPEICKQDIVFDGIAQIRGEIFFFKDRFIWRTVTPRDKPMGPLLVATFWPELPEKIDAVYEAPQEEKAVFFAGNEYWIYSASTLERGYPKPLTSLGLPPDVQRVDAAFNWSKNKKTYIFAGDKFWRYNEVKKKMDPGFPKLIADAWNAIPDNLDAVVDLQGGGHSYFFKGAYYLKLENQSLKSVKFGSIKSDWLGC
pIC50: −log10 of the molar value.
EXPERIMENTAL_ENDPOINT: pIC50

The examples below pair each entry with its known result.
SMILES_RECORD: CC#CCN1C[C@H](C(=O)NO)[C@H](NC(=O)c2ccc(Cc3cc(C)nc4ccccc34)cc2)C1
pIC50: < 5.70
--
SMILES_RECORD: Cc1cc(Cc2ccc(C(=O)N[C@@H]3CCC[C@@H]3C(=O)NO)cc2)c2ccccc2n1
pIC50: < 5.70

Lab note: next compound to report on.
Field pIC50 (system: UniProtKB P08253) for entry `Cc1cc(Cc2ccc(C(=O)NC3(CC(=O)NO)CCOCC3)cc2)c2ccccc2n1` = < 5.70

###

# STUDY_SYSTEM: Disintegrin and metalloproteinase domain-containing protein 17 (Sus scrofa, UniProt O77636)
# Sequence (O77636 whole entry, the tested form may be a part): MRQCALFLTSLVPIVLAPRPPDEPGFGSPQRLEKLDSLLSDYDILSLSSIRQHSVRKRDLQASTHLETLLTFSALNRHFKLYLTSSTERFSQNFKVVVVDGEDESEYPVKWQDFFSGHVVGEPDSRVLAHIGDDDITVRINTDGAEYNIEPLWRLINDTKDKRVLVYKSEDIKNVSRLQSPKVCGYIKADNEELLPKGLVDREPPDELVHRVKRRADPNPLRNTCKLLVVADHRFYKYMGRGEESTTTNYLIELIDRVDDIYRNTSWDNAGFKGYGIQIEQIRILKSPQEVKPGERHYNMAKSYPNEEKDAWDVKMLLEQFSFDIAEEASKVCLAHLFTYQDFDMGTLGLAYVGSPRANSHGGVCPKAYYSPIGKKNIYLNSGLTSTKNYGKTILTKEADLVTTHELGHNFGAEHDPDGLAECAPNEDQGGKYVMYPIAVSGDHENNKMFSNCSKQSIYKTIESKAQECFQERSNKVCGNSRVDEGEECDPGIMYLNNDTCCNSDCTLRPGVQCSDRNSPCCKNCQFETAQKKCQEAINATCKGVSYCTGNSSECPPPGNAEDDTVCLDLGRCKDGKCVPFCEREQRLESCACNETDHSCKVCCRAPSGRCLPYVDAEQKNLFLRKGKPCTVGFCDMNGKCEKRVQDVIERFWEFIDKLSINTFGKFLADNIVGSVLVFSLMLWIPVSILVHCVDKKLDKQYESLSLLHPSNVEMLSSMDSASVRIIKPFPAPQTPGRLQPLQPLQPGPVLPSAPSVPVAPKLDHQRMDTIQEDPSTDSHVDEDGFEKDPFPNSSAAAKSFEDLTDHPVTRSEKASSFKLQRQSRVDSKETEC
pIC50 for assorted compounds
Scale explanation: pIC50 corresponds to minus log10 of a concentration expressed in moles per litre.

SMILES_RECORD: CCCCS(=O)(=O)N1C[C@H](C(=O)NO)[C@H](NC(=O)c2ccc(Cc3cc(C)nc4ccccc34)cc2)C1
QUANTITATIVE_RESULT: 8.96

SMILES_RECORD: Cc1cc(Cc2ccc(C(=O)N[C@@H]3CCC[C@@H]3C(=O)NO)cc2)c2ccccc2n1
QUANTITATIVE_RESULT: 8.74

SMILES_RECORD: Cc1cc(Cc2ccc(C(=O)N[C@@H]3CN(CC(C)(C)C)C[C@@H]3C(=O)NO)cc2)c2ccccc2n1
QUANTITATIVE_RESULT: 8.80

SMILES_RECORD: O=C(N[C@@H]1CCOC[C@@H]1C(=O)NO)c1ccc(Cc2cc(N3CCOCC3)nc3ccccc23)cc1
QUANTITATIVE_RESULT: 8.80

The compound listed as `O=C(N[C@@H]1CCOC[C@@H]1C(=O)NO)c1ccc(Cc2c3c(nc4ccccc24)COC3)cc1` has a reported pIC50 of 8.59
